Assay: in vivo
Set-up: species or system mice
Settings: female, BALB/c nude, mouse, iv, 20 pmol, total radioactivity, uptake in femur
Description: Based on these preliminary studies, [^177Lu]Lu-2 was selected for further biodistribution studies evaluating the tumor uptake and tissue distribution for up to 7 days after injection. […] For quantification, a 1% standard was used. […] All collected samples were weighed and measured in the γ-counter together with the standard. Results were expressed as percentage of injected activity per gram of tissue (%IA/g), and tumor-to-organ activity ratios were calculated for selected tissues. […]

compound | uom | tissue uptake at 24 h
CCCC[C@@H](C(=O)N[C@@H](CC(=O)O)C(=O)N[C@@H](Cc1cccc2ccccc12)C(N)=O)N(C)C(=O)[C@H](Cc1c[nH]c2ccccc12)NC(=O)CCNC(=O)CC(O)CNC(=O)CC(O)CNC(=O)CN1CCN(CC(=O)O)CCN(CC(=O)O)CCN(CC(=O)O)CC1 (stereo partly shown) [[^177Lu]Lu-2, metal not drawn] | %ID/g | 0.05

----------
Test: in vivo
Parameters: species or system mice
Conditions: female, BALB/c nude, mouse, iv, 20 pmol, total radioactivity, uptake in liver
Method: Based on these preliminary studies, [^177Lu]Lu-2 was selected for further biodistribution studies evaluating the tumor uptake and tissue distribution for up to 7 days after injection. […] For quantification, a 1% standard was used. […] All collected samples were weighed and measured in the γ-counter together with the standard. Results were expressed as percentage of injected activity per gram of tissue (%IA/g), and tumor-to-organ activity ratios were calculated for selected tissues. […]
valueKind: tissue uptake at 24 h (%ID/g)

compound | observed
CCCC[C@@H](C(=O)N[C@@H](CC(=O)O)C(=O)N[C@@H](Cc1cccc2ccccc12)C(N)=O)N(C)C(=O)[C@H](Cc1c[nH]c2ccccc12)NC(=O)CCNC(=O)CC(O)CNC(=O)CC(O)CNC(=O)CN1CCN(CC(=O)O)CCN(CC(=O)O)CCN(CC(=O)O)CC1 (stereo partly shown) [[^177Lu]Lu-2, metal not drawn] | 0.38

----------
experiment: in vivo; parameters: species or system mice; details: female, BALB/c nude, mouse, iv, 20 pmol, total radioactivity, uptake in lung

compound | tissue uptake at 72 h
CCCC[C@@H](C(=O)N[C@@H](CC(=O)O)C(=O)N[C@@H](Cc1cccc2ccccc12)C(N)=O)N(C)C(=O)[C@H](Cc1c[nH]c2ccccc12)NC(=O)CCNC(=O)CC(O)CNC(=O)CC(O)CNC(=O)CN1CCN(CC(=O)O)CCN(CC(=O)O)CCN(CC(=O)O)CC1 (stereo partly shown) [[^177Lu]Lu-2, metal not drawn] | 0.06 %ID/g

----------
experiment: Biodistribution 4 h p.i. in A431-CCK2R/A431-mock xenografted BALB/c nude mice; format: in vivo; conditions: female, BALB/c nude, mouse, in vivo, iv, 20 pmol, total radioactivity, uptake in intestine

molecule | tissue uptake at 4 h (%ID/g)
CCCC[C@@H](C(=O)N[C@@H](CC(=O)O)C(=O)N[C@@H](Cc1cccc2ccccc12)C(N)=O)N(C)C(=O)[C@H](Cc1c[nH]c2ccccc12)NC(=O)CCNC(=O)CC(O)CNC(=O)CC(O)CNC(=O)CN1CCN(CC(=O)O)CCN(CC(=O)O)CCN(CC(=O)O)CC1 (stereo partly shown) [[^177Lu]Lu-2, metal not drawn] | 0.6

Values from paper PMC10058949
